conditions: in ethanol, 298.15 K
Assay endpoint: solubility (mole fraction)
API note: the answer field is a bare number with no unit suffix.

// field: solubility (mole fraction); key: C[C@H]1COc2c(N3CCN(C)CC3)c(F)c(N)c3c(=O)c(C(=O)O)cn1c23.Cl ; value = 1.78e-05

###

conditions: in acetonitrile, 288.15 K
Assay endpoint: solubility (mole fraction)

Entry under test: C[C@H]1COc2c(N3CCN(C)CC3)c(F)c(N)c3c(=O)c(C(=O)O)cn1c23.Cl . Its solubility (mole fraction) was 3.59e-06

###

conditions: in ethanol, 283.15 K
Assay endpoint: solubility (mole fraction)

Summary for this compound, C[C@H]1COc2c(N3CCN(C)CC3)c(F)c(N)c3c(=O)c(C(=O)O)cn1c23.Cl : solubility (mole fraction) is 1.22e-05

###

conditions: in water, 308.15 K
Assay endpoint: solubility (mole fraction)

The value of solubility (mole fraction) measured for the compound C[C@H]1COc2c(N3CCN(C)CC3)c(F)c(N)c3c(=O)c(C(=O)O)cn1c23.Cl turned out to be 0.00253

###

settings: in ethanol, 313.15 K
Assay endpoint: solubility (mole fraction)
Provide a numeric answer; units are not to be included.

Data point: C[C@H]1COc2c(N3CCN(C)CC3)c(F)c(N)c3c(=O)c(C(=O)O)cn1c23.Cl ; solubility (mole fraction) = 2.56e-05

###

settings: in ethanol, 318.15 K
Assay endpoint: solubility (mole fraction)
Please give the numeric answer without any surrounding text.

According to the records, this compound C[C@H]1COc2c(N3CCN(C)CC3)c(F)c(N)c3c(=O)c(C(=O)O)cn1c23.Cl displays solubility (mole fraction) of 2.87e-05

###

conditions: in ethanol, 278.15 K
Assay endpoint: solubility (mole fraction)

Form field solubility (mole fraction), entry C[C@H]1COc2c(N3CCN(C)CC3)c(F)c(N)c3c(=O)c(C(=O)O)cn1c23.Cl : 1.06e-05

###

details: in ethanol, 273.15 K
Assay endpoint: solubility (mole fraction)
Give the figure by itself; no unit, no explanation.

Please fill in: solubility (mole fraction) reported for C[C@H]1COc2c(N3CCN(C)CC3)c(F)c(N)c3c(=O)c(C(=O)O)cn1c23.Cl = 9.29e-06

###

settings: in ethanol, 303.15 K
Assay endpoint: solubility (mole fraction)
Keep it simple and answer with nothing but the number.

The molecule C[C@H]1COc2c(N3CCN(C)CC3)c(F)c(N)c3c(=O)c(C(=O)O)cn1c23.Cl showed solubility (mole fraction) equal to 2.02e-05

###

details: in acetonitrile, 278.15 K
Assay endpoint: solubility (mole fraction)
Answer field: number only, no words.

The compound listed as C[C@H]1COc2c(N3CCN(C)CC3)c(F)c(N)c3c(=O)c(C(=O)O)cn1c23.Cl shows solubility (mole fraction) equal to 2.73e-06

###

settings: in water, 293.15 K
Assay endpoint: solubility (mole fraction)
Please reply with the value in numeric form only.

Lab book: solubility (mole fraction) of C[C@H]1COc2c(N3CCN(C)CC3)c(F)c(N)c3c(=O)c(C(=O)O)cn1c23.Cl noted as 0.00126

###

conditions: in water, 318.15 K
Assay endpoint: solubility (mole fraction)

// solubility (mole fraction) value for C[C@H]1COc2c(N3CCN(C)CC3)c(F)c(N)c3c(=O)c(C(=O)O)cn1c23.Cl : 0.00376
